# system name: hGLP-1R (Homo sapiens)
# Sequence (P43220 24-463): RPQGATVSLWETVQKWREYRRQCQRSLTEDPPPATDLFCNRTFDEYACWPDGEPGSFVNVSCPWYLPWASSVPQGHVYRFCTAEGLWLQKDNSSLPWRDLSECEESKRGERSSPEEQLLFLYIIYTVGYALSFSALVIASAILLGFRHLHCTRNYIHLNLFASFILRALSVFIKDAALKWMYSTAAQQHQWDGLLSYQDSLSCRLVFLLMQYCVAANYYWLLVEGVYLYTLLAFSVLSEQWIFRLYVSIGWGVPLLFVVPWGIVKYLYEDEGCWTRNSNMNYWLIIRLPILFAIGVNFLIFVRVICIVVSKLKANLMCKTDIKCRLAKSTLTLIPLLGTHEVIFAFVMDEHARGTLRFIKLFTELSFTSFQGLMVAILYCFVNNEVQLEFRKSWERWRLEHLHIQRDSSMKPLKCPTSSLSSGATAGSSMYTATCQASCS
# assay info: Functional cAMP activation in the presence of 0.1% casein (no HSA);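 note: intracellular cAMP rise after 30 min at 37 °C read by HTRF, normalized between buffer only (0%) and maximal control ligand (100%), four-parameter variable-slope fit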
# Assay type: cell-based
# conditions: in the presence of 0.1% casein (no HSA); geometric mean; read-out: Relative cAMP EC50, hGLP-1R
Starred links: 1 amine or outer side, 2 acyl side, 3 side chain; linkers in the order of their positions; H or OH if unused. Non-standard residues stand in square brackets, D forms with d. Groups on a side chain read outwards from the residue. No end group written: not given here. *: point of attachment. C20 diacid = O=C(O)CCCCCCCCCCCCCCCCCCC(=O)*; C18 diacid = O=C(O)CCCCCCCCCCCCCCCCC(=O)*; Phe(4-CN) = N#Cc1ccc(C[C@H](N)C(=O)O)cc1; αMePhe(2-F) = C[C@](N)(Cc1ccccc1F)C(=O)O; γGlu = O=C(O)[C@H](CCC(=O)[*:2])N[*:1]; εLys = N[C@@H](CCCCN[*:1])C(=O)[*:2]; αMe4Pal = C[C@](N)(Cc1ccncc1)C(=O)O; αMeY = C[C@](N)(Cc1ccc(O)cc1)C(=O)O; αMeF = C[C@](N)(Cc1ccccc1)C(=O)O; 4Pal = N[C@@H](Cc1ccncc1)C(=O)O; αMeL = CC(C)C[C@](C)(N)C(=O)O; αMeS = C[C@](N)(CO)C(=O)O; Orn = NCCC[C@H](N)C(=O)O; AEEA = NCCOCCOCC(=O)O; Aib = CC(C)(N)C(=O)O
pEC50 listing for selected substances.
Keep it numeric: pEC50 is minus log10 of the concentration in mol/L.

Some substances with known pEC50 results, for comparison:
substance | pEC50
H-Y[Aib]QGTFTSD[4Pal]SQ[αMeL]LD[Orn]K([γGlu-γGlu-C18 diacid])AQ[αMe4Pal]QFIEYLLAGGPSSGAPPPSGSEE-NH2 [Example 1006] | 8.29
Y[Aib]QGT[αMePhe(2-F)]TSD[4Pal][αMeS]I[αMeL]LD[Orn]K([AEEA-γGlu-C18 diacid])AQ[αMe4Pal]EFI[dE][αMeY]LIEGGPSSGAPPPESE-NH2 [Example 1146] | 9.55
H-Y[Aib]QGT[αMePhe(2-F)]TSD[Phe(4-CN)]SILLDKQAQK([AEEA-γGlu-γGlu-C20 diacid])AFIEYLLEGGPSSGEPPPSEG-NH2 [Example 352] | 9.01

Problem: // pEC50 lookup, key: H-Y[Aib]QGTFTSDYSK[αMeL]LDKK([AEEA-γGlu-C20 diacid])AQQAFIEYLIAGGPSSGAPPPSSE-NH2 [Example 322]
Result: 9.40

Problem: Now the same for H-Y[Aib]QGTFTSD[4Pal]SQ[αMeL]LD[Orn]K([AEEA-γGlu-C18 diacid])AQ[αMe4Pal]QFIE[αMeY]LIEGGPSSGAPPPSGSEE-NH2 [Example 1045]
Result: 8.82

Problem: Please do the same for H-Y[Aib]QGT[αMeF]TSDYSILLDKIAAK([AEEA-AEEA-γGlu-C18 diacid])NFIEYLVEGGPSSGEPPPSEG-NH2 [Example 307] as well.
Result: 9.08

Problem: # iterate: H-Y[Aib]QGTFTSDYSI[αMeL]LDKQAAK([εLys-εLys-γGlu-C20 diacid])QFVEWLLA[Aib]GPSSGEPPPSEG-NH2 [Example 329]
Result: 9.03

Measured values drawn from patent US20240270821A1 for this set.
